So I've got a bunch of binders here, and I need their OD450 nm of CD47 bound to SIRPα values.
- tested-target: T1, biotin-labeled CD47 extracellular domain protein (CD47-ECD) (UniProt Q08722 19-139, limits assumed, biotin-labeled (sites not given))
- T1 construct: extracellular domain; also called CD47 protein
- T1 sequence (Q08722 19-139 limits assumed): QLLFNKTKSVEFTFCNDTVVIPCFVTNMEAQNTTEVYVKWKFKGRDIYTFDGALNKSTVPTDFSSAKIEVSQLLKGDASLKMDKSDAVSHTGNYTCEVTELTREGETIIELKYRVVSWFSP
- protocol-description: blocking ELISA, biotin-CD47-ECD on coated SIRPα-hFc; Ab 200 nM
I only need the number, thanks.

stdin: Indicate the recorded OD450 nm of CD47 bound to SIRPα value for this binder: 132D1E5 (antibody, V domains shown, Murine hybridoma antibody purified on protein G) VH: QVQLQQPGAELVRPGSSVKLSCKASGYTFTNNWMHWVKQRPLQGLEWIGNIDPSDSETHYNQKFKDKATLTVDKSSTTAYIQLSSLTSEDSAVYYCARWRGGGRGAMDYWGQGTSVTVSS VL: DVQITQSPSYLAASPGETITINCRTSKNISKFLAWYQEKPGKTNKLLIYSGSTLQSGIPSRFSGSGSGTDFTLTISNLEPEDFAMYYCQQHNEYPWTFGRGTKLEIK
stdout: 0.08

stdin: Retrieve OD450 nm of CD47 bound to SIRPα measured for 20H4G5 (antibody, V domains shown, Murine hybridoma antibody purified on protein G) VH: QVQLQQPGAELVRPGSSVRLSCVTSGYTFTSHWMHWVKQGPIKGLEWIGNIDPSDSETHYNQKFKDKATLTVDKSSSTAYMQLSRLTSDDSAVYYCARWRHLGIGAMDYWGQGTSVIVSS VL: DVQITQSPSYLAASPGETITINCRASKNISKFLAWYQAKPGKSNNLLIYSGSTLQSGIPSRFSGSGSGTDFTLTISRLEPEDFAMYYCQQHNEYPWTFGGGTKLEIK and print it.
stdout: 0.07
